test system: Es-2; experiment: Primary qHTS to identify gynecologic anti-cancer compounds using libraries of approved drugs and bioactive compounds (AID 1345084); settings: Gynecologic cancer cell panel viability, ATPlite luminescence, 48 h; series mostly up to 57.5 µM; also: nearly all actives have a fitted effect of over 55% in size
Results filed as inconclusive are left out. Activity calls are given as the source filed them. Calls follow the shape of the dose curve; as a rule, active = well fitted cell-killing curve with a large enough effect; inconclusive = small, poorly fitted or top-dose-only effect, or effect the other way; inactive = flat fitted curve, though single readings scatter.
Answer with one of the outcomes active, inactive

Examples with answers:
[
  {
    "molecule": "CC12CCC3c4ccc(O)cc4CCC3C1CC(OC1OC(C(=O)O)C(O)C(O)C1O)C2O (centres undefined)",
    "qualitative-label": "inactive"
  },
  {
    "molecule": "CC(O)(CC(=O)O)CC(=O)OCc1ccc(O[C@@H]2O[C@H](CO)[C@@H](O)[C@H](O)[C@H]2O)cc1 (some centres undefined)",
    "qualitative-label": "inactive"
  },
  {
    "molecule": "Cc1nc(Nc2n[nH]c3c2CN(C(=O)NC(CN(C)C)c2ccccc2)C3(C)C)c2sccc2n1 (centres undefined)",
    "qualitative-label": "active"
  },
  {
    "molecule": "C=CC[C@]12C[C@@H](OC)C(=O)C(OC)=C1O[C@@H](c1cc(OC)c3c(c1)OCO3)[C@@H]2C",
    "qualitative-label": "inactive"
  },
  {
    "molecule": "CC1=C(CCC(C)CC(=O)O)[C@@]2(C)CCCC(C)(C)C2CC1=O (some centres undefined)",
    "qualitative-label": "inactive"
  },
  {
    "molecule": "O=C1NC(=O)C(c2cn3c4c(cccc24)CCC3)C1c1c[nH]c2ccccc12 (centres undefined)",
    "qualitative-label": "active"
  }
]

Query: # outcome recorded in this test, key = "O=C(CSc1nc2c(c(=O)n1-c1ccccc1)SCC2)Nc1ccc(-c2ccccc2)cn1"
Result: active

Query: Moving on to the next molecule: CC(C)[N+]1(C)C2CCC1CC(OC(=O)C(CO)c1ccccc1)C2 (centres undefined)
Result: inactive

Query: Moving on to the next molecule: C[C@@H]1C(=O)O[C@H]2[C@H](O)C34[C@H]5C[C@@H](C(C)(C)C)C36[C@@H](OC(=O)[C@@H]6O)O[C@@]4(C(=O)O5)[C@@]12O (some centres undefined)
Result: inactive

###

test system: PA-1; assay: Primary qHTS to identify gynecologic anti-cancer compounds using libraries of approved drugs and bioactive compounds (AID 1345084); conditions: Gynecologic cancer cell panel viability, ATPlite luminescence, 48 h; series mostly up to 57.5 µM; also: nearly all actives have a fitted effect of over 55% in size
Results filed as inconclusive are left out. Activity calls are given as the source filed them. Calls follow the shape of the dose curve; as a rule, active = well fitted cell-killing curve with a large enough effect; inconclusive = small, poorly fitted or top-dose-only effect, or effect the other way; inactive = flat fitted curve, though single readings scatter.
Answer with one of the outcomes Yes for active, No for inactive

[
  {
    "compound": "CNC(=O)c1ccccc1Nc1nc(Nc2ccc(N3CCNCC3)cc2)ncc1Cl",
    "qualitative-label": "Yes"
  },
  {
    "compound": "Cc1cc(O)c(-c2ccc([C@@H](C)CN(C)C)cc2)c2c1[nH]c(=O)c1sccc12",
    "qualitative-label": "Yes"
  },
  {
    "compound": "CC1(C)CCC[C@]2(C)[C@H]3CC(=O)O[C@]3(C)CC[C@@H]12",
    "qualitative-label": "No"
  }
]

Query: # outcome recorded in this test, key = CC1=C(C(=O)OCc2ccccc2)C(c2ccc(-c3ccccc3)cc2)NC(=O)N1CCCCCC(=O)O (stereo not given)
Result: No

Query: Moving on to the next compound: CCC(C)C(=O)OC1CC(C)C=C2C=CC(C)C(CCC(O)CC(O)CC(=O)O)C21 (stereo not given)
Result: No

###

system: KB-3-1; experiment: Cytotoxic Profiling of Annotated Libraries Using Quantitative High-Throughput Screening (AID 1296008); details: Five cell lines viability, CellTiter-Glo ATP luminescence, 48-72 h; also: nearly all actives have a fitted effect of over 60% in size
Inconclusive results are not listed. Activity calls are given as the source filed them. The call rests on the fitted dose curve; in most records, active means well fitted inhibition curve with a large enough effect; inconclusive means small, poorly fitted or top-dose-only effect; inactive means flat fitted curve, though single readings scatter.
Answer with one of the outcomes t (active), f (inactive)

Examples with answers:
[
  {
    "compound": "CCC(O)C(C)C1CCC(C(C)C(=O)O)O1 (centres undefined)",
    "qualitative-label": "f"
  },
  {
    "compound": "O=S(=O)(NCC1CC1)c1ccc(Nc2nccc(N3CCCc4cc(O)ccc43)n2)cc1",
    "qualitative-label": "t"
  },
  {
    "compound": "C[C@@H]1O[C@@H](O[C@@H]2CO[C@@H](O[C@H]3CC[C@@]4(C)C(CC[C@]5(C)C4CC=C4[C@@H]6CC(C)(C)CC[C@]6(C(=O)O[C@@H]6O[C@H](CO)[C@@H](O)[C@H](O)[C@H]6O)CC[C@]45C)[C@]3(C)CO)[C@H](O)[C@H]2O[C@@H]2O[C@H](CO)[C@@H](O)[C@H](O)[C@H]2O)[C@H](O)[C@H](O)[C@H]1O (some centres undefined)",
    "qualitative-label": "f"
  }
]

Query compound follows.
Query: # outcome recorded in this test, key = "C[C@@]1(O)[C@H](O)[C@@H](CO)O[C@H]1n1ccc(N)nc1=O"
Result: f

###

tested on: HEK293; assay: Cytotoxic Profiling of Annotated Libraries Using Quantitative High-Throughput Screening (AID 1296008); settings: Five cell lines viability, CellTiter-Glo ATP luminescence, 48-72 h; also: nearly all actives have a fitted effect of over 60% in size
Results filed as inconclusive are left out. Activity calls are given as the source filed them. Calls follow the shape of the dose curve; as a rule, active = well fitted inhibition curve with a large enough effect; inconclusive = small, poorly fitted or top-dose-only effect; inactive = flat fitted curve, though single readings scatter.
Answer with one of the outcomes active, inactive

[
  {
    "molecule": "CC1CCN(C(=O)CC#N)CC1N(C)c1ncnc2[nH]ccc12 (stereo not given)",
    "test-system": "HEK293",
    "qualitative-label": "inactive"
  },
  {
    "molecule": "COc1ccc(Oc2cc(C)c(-c3csc(NC(=O)c4ccncc4)n3)c(C)c2)cc1",
    "test-system": "HEK293",
    "qualitative-label": "active"
  }
]

Query: # outcome recorded in this test, key = CC1(C)CC[C@]2(C(=O)O)CC[C@]3(C)C(=CCC4[C@@]5(C)C[C@@H](O)[C@H](O)C(C)(C)C5CC[C@]43C)C2C1 (stereo not given in full)
Result: inactive

Query: Moving on to the next molecule: CC(C)Oc1ccc(C(=O)NC(CNC(=O)CN(C)C)Cc2ccc(-c3cn4cccc(C(C)O)c4n3)cc2)cc1Cl (stereo not given)
Result: active

Query: Moving on to the next molecule: CN(C)c1nc(NC2CCC(NCCc3ccc(Br)cc3OC(F)(F)F)CC2)nc2ccccc12 (stereo not given)
Result: active

Query: Moving on to the next molecule: CC1CCCCN1S(=O)(=O)c1ccc(N2CCCC2=O)cc1 (stereo not given)
Result: inactive

###

Reported activity change, negative = cytotoxicity values for a set of compounds
test system: SKOV3; assay: Primary qHTS to identify gynecologic anti-cancer compounds using libraries of approved drugs and bioactive compounds (AID 1345084); settings: Gynecologic cancer cell panel viability, ATPlite luminescence, 48 h; series mostly up to 57.5 µM; also: nearly all actives have a fitted effect of over 55% in size; as to activity change, negative = cytotoxicity: % is scaled to controls: 0 for no effect and ±100 for the full control effect
Records with an inconclusive call do not appear. Calls of active or inactive are those of the source. Calls follow the shape of the dose curve; as a rule, active = well fitted cell-killing curve with a large enough effect; inconclusive = small, poorly fitted or top-dose-only effect, or effect the other way; inactive = flat fitted curve, though single readings scatter.

[
  {
    "compound": "CC(C)=CCC[C@](C)(O[C@@H]1O[C@H](CO)[C@@H](O)[C@H](O)[C@H]1O)[C@H]1CC[C@]2(C)[C@@H]1[C@H](O)CC1[C@@]3(C)CC[C@H](O)C(C)(C)C3[C@@H](O[C@@H]3O[C@H](CO)[C@@H](O)[C@H](O)[C@H]3O[C@@H]3OC[C@@H](O)[C@H](O)[C@H]3O)C[C@]12C (some centres undefined)",
    "test-system": "SKOV3",
    "obs-value": "-3.65% [at 11.6 µM] (inactive)"
  },
  {
    "compound": "C=C1CC[C@@H]2[C@@](C)(CO[C@@H]3O[C@H](CO)C(O)[C@H](O)C3O)[C@H](O)CC[C@@]2(C)[C@@H]1CC/C(C)=C/CO (some centres undefined)",
    "test-system": "SKOV3",
    "obs-value": "-9.26% [at 11.6 µM] (inactive)"
  },
  {
    "compound": "C[C@H](N)C(=O)N[C@@H](Cc1ccc(O)cc1)C(=O)N1CCC[C@H]1C(=O)NCC(=O)N[C@@H](CCCCN)C(=O)N[C@@H](Cc1ccccc1)C(N)=O",
    "test-system": "SKOV3",
    "obs-value": "32.3% [at 11.6 µM] (inactive)"
  }
]

Query: Kindly state the measured activity change, negative = cytotoxicity obtained for C[C@@H]1O[C@@H](O[C@H]2[C@H](OC(=O)[C@]34CCC(C)(C)C[C@H]3C3=CCC5[C@@]6(C)C[C@H](O)[C@H](O[C@@H]7O[C@H](CO)[C@@H](O)[C@H](O)[C@H]7O)[C@@](C)(CO)C6[C@H](O)C[C@@]5(C)[C@]3(C)C[C@H]4O)OC[C@H](O)[C@@H]2O)[C@H](O)[C@H](O)[C@H]1O[C@@H]1OC[C@@H](O)[C@H](O[C@H]2OC[C@](O)(CO)[C@H]2O)[C@H]1O (some centres undefined) with SKOV3.
Result: 19.1% [at 6.55 µM] (inactive)
